B1: library; a variant is named by its letters at N, in order (parent)
chain: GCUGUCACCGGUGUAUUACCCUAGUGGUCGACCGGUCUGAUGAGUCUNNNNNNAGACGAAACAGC

Variants of: B1
Assay: FACS-Seq fitted mean relative fluorescence mCherry/BFP without ligand (log10 relative fluorescence); ligand: hypoxanthine (xanthine aptamer); higher = higher reporter protein expression
Settings: HEK293T, ligand present: no
experimental readout: FACS-Seq fitted mean (log10)
Reply with just the number.

Past entries and their recorded results:
[[record]]
mutant_label = "AACAGA"
reported = 0.273

[[record]]
mutant_label = "GUCUCG"
reported = 0.392

[[record]]
mutant_label = "UUUGAG"
reported = 0.198

[[record]]
mutant_label = "AAAAGA"
reported = 0.199

[[record]]
mutant_label = "CUAAUC"
reported = 0.365


Lookup: Any idea what its FACS-Seq fitted mean (log10) is? The variant is `UUUUAU`
Found: 0.589

Lookup: Quick check: FACS-Seq fitted mean (log10) of `GUCAGC` ?
Found: 0.371
